test: Standard protocol for determination of kcat and KM (continuous spectrophotometric assay, Acetyl CoA hydrolysis at 235 nm); format: biochemical; details: purified protein; about 23° C.; 20 mM HEPES pH 6.8, 10% ethylene glycol, 0.2 mM acetyl CoA
ATTRIBUTE MEASURED: Kcat

Below, 2 molecules whose answers are already recorded.
{"MOLECULE": "SEQ ID NO: 427: GAT polypeptide (protein, 9_20F12, GAT polypeptide) MIEVKPINAEDTYEIRHRVLRPNQPLEACMYETDLLGGTFHLGGYYRGELVSIASFHQAEHPELEGQKQYQLRGMATLEGYREQKAGSTLIRHAEELLRKKGADLLWCNARTSASGYYKKLGFSEQGGVYDIPPVGPHILMYKKLT", "MEASURED RESULT": "0.63 s⁻¹"}
{"MOLECULE": "SEQ ID NO: 396: GAT polypeptide (protein, 6_22C9, GAT polypeptide) MIEVKPINAEDTYEIRHRILRPNRPLEACMYETDLLGGTFHLGGYYRGKLISIASFHQAEHPGLEGKKQYQLRGMATLEEYREQKAGSTLIRHAEELLRKKGADLLWCNARTSASGYYKKLGFSEQGGVYDIPPVGPHILMYKKLT", "MEASURED RESULT": "0.79 s⁻¹"}

# next molecule below
Param item = SEQ ID NO: 512: GAT polypeptide (protein, GAT2_15G8, GAT polypeptide) MIEVKPINAEDTYEIRHRILRPNQPLEACKYETDLLGGTFHLGGYYRGKLISIASFHNAEHSELEGQKQYQLRGMATLEGYREQKAGSTLIRHAEELLRKKGADLLWCNARTSVSGYYKKLGFSEQGEVYDIPPIGPHILMYKKLT ; retrieve measured Kcat.
0.075 s⁻¹
